Target chain: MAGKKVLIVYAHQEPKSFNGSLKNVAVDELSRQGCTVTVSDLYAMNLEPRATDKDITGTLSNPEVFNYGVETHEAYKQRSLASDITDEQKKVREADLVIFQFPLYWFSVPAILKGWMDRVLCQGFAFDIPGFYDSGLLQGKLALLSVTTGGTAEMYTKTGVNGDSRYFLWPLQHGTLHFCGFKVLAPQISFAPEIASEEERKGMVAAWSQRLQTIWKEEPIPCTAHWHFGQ
pKi: −log10 of the molar value.
Kindly supply the reported pKi values for the records listed here.

Field pKi (entry O=S(=O)(O)Oc1cc(O)cc(C=Cc2ccc(O)cc2)c1 [Resveratrol-3-O-sulfate, resveratrol-3-O-sulfate] ) reads < 4.00

Consider the additional molecule presented here.
Field pKi (entry O=S(=O)(O)Oc1ccc(C=Cc2cc(O)cc(O)c2)cc1 [Resveratrol-4′-O-sulfate, resveratrol-4′-O-sulfate] ) reads < 4.00
